- targetOrSystem: T1, CD47 on the surface of cynomolgus monkey B cells (cynomolgus monkey, UniProt A0A5F8AK49 19-323 (rhesus entry))
- T1 construct: whole, on cells; also called cynomolgus monkey CD47
- measurementNotes: FACS on cynomolgus monkey B cells, antibody 66.7 nM
Reported Max MFI values for a set of binders
Number only, in MFI; omit the unit.

The following binders have reported results that may help.
binder="Hu-125G4A4m-43 (antibody, V domains shown, Humanized antibody, IgG4 S228P (IgG4P) subtype) VH: QVQLVQSGAEVKKPGSSVKVSCKASGYTFTSYYMHWVRQAPGQGLEWMGYIDPANDYSDYNQNFKDRVTITADKSTRTTYMELTSLRSEDTAVYYCARLGYGQSSPFDYWGQGTTVTVSS VL: DIQMTQSPSSLSASVGDRVTITCKASQDIHNYLSWFQQKPGKAPKSLIYRAKRLVEGVPSRFSGSGSGQDYTLTISSLQPEDFATYYCLQYDELYTFGQGTRLEIK" assayresult=3260
binder="Hu-125G4A4m-47 (antibody, V domains shown, Humanized antibody, IgG4 S228P (IgG4P) subtype) VH: QVQLVQSGAEVKKPGSSVKVSCKASGYTFTSYYMHWVRQAPGQGLEWMGYIDPANDYSDYNQNFKDRVTITADKSTRTAYMELTSLRSEDTAVYYCARLGYGQSSPFDYWGQGTTVTVSS VL: DIKMTQSPSSLSASVGDRVTITCKASQDIHNYLSWFQQKPGKAPKTLIYRAKRLVEGVPLRFSGSGSGQDYTLTISSLQPEDFATYFCLQYDELYTFGQGTRLEIK" assayresult=4100
binder="Hu-125G4A4m-44 (antibody, V domains shown, Humanized antibody, IgG4 S228P (IgG4P) subtype) VH: QVQLVQSGAEVKKPGSSVKVSCKASGYTFTSYYMHWVRQAPGQGLEWMGYIDPANDYSDYNQNFKDRVTITADKSTRTTYMELTSLRSEDTAVYYCARLGYGQSSPFDYWGQGTTVTVSS VL: DIKMTQSPSSLSASVGDRVTITCKASQDIHNYLSWFQQKPGKAPKTLIYRAKRLVEGVPLRFSGSGSGQDYTLTISSLQPEDFATYFCLQYDELYTFGQGTRLEIK" assayresult=4510

Req: Entry humanized antibody HMA02h14-48 (antibody, V domains shown, Humanized antibody, IgG4 S228P (IgG4P) subtype; also called Hu-125G4A4m-48; Hu-125G4A4-48) VH: QVQLVQSGAEVKKPGSSVKVSCKASGYTFTSYYMHWVRQAPGQGLEWMGYIDPANDYSDYNQNFKDRATLTADKSTRTTYMELTSLRSEDTAVYYCARLGYGQSSPFDYWGQGTTVTVSS VL: DIQMTQSPSSLSASVGDRVTITCKASQDIHNYLSWFQQKPGKAPKSLIYRAKRLVEGVPSRFSGSGSGTDYTLTISSLQPEDFATYYCLQYDELYTFGQGTRLEIK : reported Max MFI = ?
Resp: 4200
